Target: T1, TGFβ1 (R&D Systems)
T1 construct: also called TGFB1
T1 sequence (P01137 279-390): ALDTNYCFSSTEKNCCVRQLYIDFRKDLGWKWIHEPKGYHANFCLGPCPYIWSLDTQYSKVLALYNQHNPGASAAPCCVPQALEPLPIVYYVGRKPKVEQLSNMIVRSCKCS
Test: SPR full titration
measuredProperty: pKd
Would you please state pKd, meaning minus log10 of the concentration in mol/L, as a bare number?

Please review the entries below; each comes with its answer.
Can-SL501-VH3 Y111I / Can-SL501-VL2 (antibody, V domains shown) VH: EVQLVESGGDLVKPGGSLRLSCVASGFTFSSYGMHWVRQAPGKELEWVAVISYDGSIKYYADAVKGRFTISRDNAKNTLYLQMNSLRAEDTAVYYCARTGEYSGYDTDPQISWGQGTTVTVSS VL: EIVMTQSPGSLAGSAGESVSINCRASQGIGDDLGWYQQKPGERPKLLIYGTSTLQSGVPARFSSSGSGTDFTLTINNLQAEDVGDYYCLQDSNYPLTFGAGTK: 10.51
Can-SL501-VH3 Y111E / Can-SL501-VL2 (antibody, V domains shown) VH: EVQLVESGGDLVKPGGSLRLSCVASGFTFSSYGMHWVRQAPGKELEWVAVISYDGSIKYYADAVKGRFTISRDNAKNTLYLQMNSLRAEDTAVYYCARTGEYSGYDTDPQESWGQGTTVTVSS VL: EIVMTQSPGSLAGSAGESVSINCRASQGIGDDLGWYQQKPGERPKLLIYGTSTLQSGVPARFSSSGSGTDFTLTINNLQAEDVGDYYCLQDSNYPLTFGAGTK: 10.62
Can-SL501-VH3 Q110E / Can-SL501-VL2 (antibody, V domains shown) VH: EVQLVESGGDLVKPGGSLRLSCVASGFTFSSYGMHWVRQAPGKELEWVAVISYDGSIKYYADAVKGRFTISRDNAKNTLYLQMNSLRAEDTAVYYCARTGEYSGYDTDPEYSWGQGTTVTVSS VL: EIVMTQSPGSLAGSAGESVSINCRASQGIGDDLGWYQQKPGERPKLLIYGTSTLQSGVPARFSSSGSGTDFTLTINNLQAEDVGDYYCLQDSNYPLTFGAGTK: 10.18
Can-SL501-VH3 Y111T / Can-SL501-VL2 (antibody, V domains shown) VH: EVQLVESGGDLVKPGGSLRLSCVASGFTFSSYGMHWVRQAPGKELEWVAVISYDGSIKYYADAVKGRFTISRDNAKNTLYLQMNSLRAEDTAVYYCARTGEYSGYDTDPQTSWGQGTTVTVSS VL: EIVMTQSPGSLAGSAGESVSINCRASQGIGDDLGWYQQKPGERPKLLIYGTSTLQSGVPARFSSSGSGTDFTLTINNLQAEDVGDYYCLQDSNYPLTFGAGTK: 10.63
Can-SL501-VH3 Q110N / Can-SL501-VL2 (antibody, V domains shown) VH: EVQLVESGGDLVKPGGSLRLSCVASGFTFSSYGMHWVRQAPGKELEWVAVISYDGSIKYYADAVKGRFTISRDNAKNTLYLQMNSLRAEDTAVYYCARTGEYSGYDTDPNYSWGQGTTVTVSS VL: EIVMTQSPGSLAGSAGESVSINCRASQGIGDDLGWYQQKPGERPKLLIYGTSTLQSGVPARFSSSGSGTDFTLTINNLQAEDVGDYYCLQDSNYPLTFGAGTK: 10.09

Proceed to the following item.
Data request, read-out pKd, for Can-SL501-VH3 Y111F / Can-SL501-VL2 (antibody, V domains shown) VH: EVQLVESGGDLVKPGGSLRLSCVASGFTFSSYGMHWVRQAPGKELEWVAVISYDGSIKYYADAVKGRFTISRDNAKNTLYLQMNSLRAEDTAVYYCARTGEYSGYDTDPQFSWGQGTTVTVSS VL: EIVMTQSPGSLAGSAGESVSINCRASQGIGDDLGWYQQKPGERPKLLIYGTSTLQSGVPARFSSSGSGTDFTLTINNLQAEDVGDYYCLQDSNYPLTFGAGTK
10.19
